# System: NCI-H522
# ASSAY_REMARKS: NCI tumour cell line growth inhibition, 48 h
Active and inactive are the calls of the source. Cut-off read from the data, not from the text of the source: active = GI50 up to about 1.1 µM and inactive = higher.
Item-by-item account of GI50

Completed entries (count: 5):
[[record]]
molecule = "O=c1[nH]cc(F)c(=O)n1C1OC(CO)C(O)C1O (stereo unspecified)"
test_system = "NCI-H522"
result_type = "GI50"
measurement = "> 100 µM (inactive)"

[[record]]
molecule = "CC(C)C[C@H](NC(=O)CCc1ccccc1)B(O)O"
test_system = "NCI-H522"
result_type = "GI50"
measurement = "11.7 µM (inactive)"

[[record]]
molecule = "O=C(CC1Sc2ccccc2NC1=O)Nc1ccccc1[N+](=O)[O-] (stereo unspecified)"
test_system = "NCI-H522"
result_type = "GI50"
measurement = "17.1 µM (inactive)"

[[record]]
molecule = "c1ccc([P+](Cc2csnn2)(c2ccccc2)c2ccccc2)cc1"
test_system = "NCI-H522"
result_type = "GI50"
measurement = "> 100 µM (inactive)"

[[record]]
molecule = "Cn1c2ccccc2c(=O)c2c(O)cc3c(c21)CC(C1(C)CO1)O3 (stereo unspecified)"
test_system = "NCI-H522"
result_type = "GI50"
measurement = "2.93 µM (inactive)"


Task: State its GI50 for this molecule: "Clc1cc(Cl)nc(Nc2ccc3c(c2)CCC3)n1"
Result: 2.54 µM (inactive)

---

# System: RPMI-8226
# ASSAY_REMARKS: NCI tumour cell line growth inhibition, 48 h
Activity calls are given as the source filed them. Cut-off read from the data, not from the text of the source: active = GI50 up to about 1.1 µM and inactive = higher.
RESULT_TYPE: GI50

[[record]]
molecule = "COP(=O)(OC)C(O)CC(C)C (stereo unspecified)"
test_system = "RPMI-8226"
result_type = "GI50"
measurement = "> 100 µM (inactive)"

[[record]]
molecule = "COc1c(OC2OC(CO)C(O)C(O)C2O)cc2c(c1OC)-c1ccc(OC)c(=O)cc1[C@@H](NC(C)=O)CC2 (stereo partly specified)"
test_system = "RPMI-8226"
result_type = "GI50"
measurement = "> 82.2 µM (inactive)"

[[record]]
molecule = "O=[N+]([O-])c1ccc(C2CC(c3ccccc3Cl)=Nc3ccccc3[S+]2[O-])cc1 (stereo unspecified)"
test_system = "RPMI-8226"
result_type = "GI50"
measurement = "1.77 µM (inactive)"


Task: State its GI50 for this molecule: C/C=C\C(CC(=O)NCCc1c[nH]c2ccccc12)CC(=O)OC (stereo unspecified)
Result: > 100 µM (inactive)

Task: State its GI50 for this molecule: "ClCCc1ccccc1CC1=NCCc2ccccc21"
Result: 16.3 µM (inactive)

---

# System: HL-60
# ASSAY_REMARKS: NCI tumour cell line growth inhibition, 48 h
Activity calls are given as the source filed them. Rule as the data show it: active = GI50 up to about 1.1 µM and inactive = higher.
Choose one outcome from this list and give only that: yes (1) for active, no (0) for inactive

Solved cases (5 shown):
[[record]]
smiles_entry = "COc1ccc2c(c1)Cc1cc(/N=[N+](\\[O-])c3ccc4c(c3)Cc3cc(OC)ccc3-4)ccc1-2"
label_value = "no (0)"

[[record]]
smiles_entry = "CN(C)CCn1c(=O)oc2cc(C(=O)CN3CCOCC3)ccc21"
label_value = "no (0)"

[[record]]
smiles_entry = "CN(C)c1ncc(-c2c[nH]c3ccccc23)nc1-c1c[nH]c2ccccc12"
label_value = "no (0)"

[[record]]
smiles_entry = "CCCc1nnc2sc(COc3ccc(OCc4nn5c(CCC)nnc5s4)c(Cl)c3)nn12"
label_value = "no (0)"

[[record]]
smiles_entry = "COC(=O)/C=C\\C(C#N)(C#N)/N=C/c1ccsc1"
label_value = "yes (1)"


Turning now to a further molecule:
Task: Call for entry "CC(=O)Oc1ccc2oc(=O)cc(C)c2c1" :
Result: no (0)
